Cited source for all entries: patent US4150153A

Tested on: male Hilltop ICR-derived mice
Assay: Maximal Electroshock Test in Mice
Format: in vivo
Settings: Mus musculus, ip, 0.25 h, intraperitoneally 15 minutes prior to transcorneal maximal electroshock (50 milliamps, 0.2 seconds), antagonizing tonic extension, in parentheses 95% confidence limits
Field: label. Allowed values: criterion met (ED50 < 30 mg/kg) or criterion not met (ED50 >= 30 mg/kg).

| Molecule | Subject of test | Category |
| --- | --- | --- |
| c1ccc2c(C3(Cn4ccnc4)OCCO3)cccc2c1 | male Hilltop ICR-derived mice | criterion met |
| CC1(C)COC(Cn2ccnc2)(c2ccc3ccccc3c2)OC1 | male Hilltop ICR-derived mice | criterion met |
| CC1CCOC(Cn2ccnc2)(c2ccc3ccccc3c2)O1 (stereo not shown) | male Hilltop ICR-derived mice | criterion met |
| CCSC(Cn1ccnc1)(SCC)c1ccc2ccccc2c1 | male Hilltop ICR-derived mice | criterion not met |
| OC(Cn1ccnc1)c1cccc2ccccc12 (stereo not shown) | male Hilltop ICR-derived mice | criterion not met |
| c1ccc2cc(C3(Cn4ccnc4)OCCCO3)ccc2c1 | male Hilltop ICR-derived mice | criterion met |
| CSC(Cn1ccnc1)(SC)c1ccc2ccccc2c1 | male Hilltop ICR-derived mice | criterion not met |

###

Tested on: male Hilltop ICR-derived mice
Experiment: Maximal Electroshock Test in Mice
Assay type: in vivo
Settings: Mus musculus, ip, 0.25 h, intraperitoneally 15 minutes prior to transcorneal maximal electroshock (50 milliamps, 0.2 seconds), antagonizing tonic extension, in parentheses 95% confidence limits
# maps each entry to its ED50

| Compound | ED50 / mg/kg |
| --- | --- |
| c1ccc2cc(C3(Cn4ccnc4)OCCO3)ccc2c1 | 12 |
| OC(Cn1ccnc1)c1ccc2ccccc2c1 (centres unmarked) | 74 |
| O=C(Cn1ccnc1)c1ccc2ccccc2c1 | 23 |
| c1ccc2cc(C3(Cn4ccnc4)SCCS3)ccc2c1 | 26 |
